// provenance: PubChem BioAssay (NCI)

tested on: NCI-H522 lung; assay: NCI tumour cell line growth inhibition, 48 h
measured.endpoint: TGI (µM)

| compound | target.or.test.system | measured.endpoint | limit.operator | observed.result |
| --- | --- | --- | --- | --- |
| COc1ccc(CNC(=O)COc2ccc(/C=N/Nc3nc4ccccc4s3)cc2)cc1 | NCI-H522 lung | TGI | = | 9.63 |
| CC1(C)N=C(N)N=C(N)N1c1ccc(CCCCc2ccc(S(=O)(=O)F)cc2Cl)c(Cl)c1 | NCI-H522 lung | TGI | = | 31.4 |
| Cc1cc(O)cc(O)c1N=Nc1ccc([N+](=O)[O-])cc1 | NCI-H522 lung | TGI | = | 14.5 |
| CC[n+]1ccc2c(c1)C(=O)c1nccc3c1c-2nc1ccccc13 | NCI-H522 lung | TGI | = | 1.45 |
| S=C1NCCN1C1=Nc2ccccc2CO1 | NCI-H522 lung | TGI | > | 100 |
| CN(C)c1ccc(/C=C2\C[N+](C)(C)C/C(=C\c3ccc(N(C)C)cc3)C2=O)cc1 | NCI-H522 lung | TGI | = | 26.2 |
| COc1ccc(NC2Oc3cc4c(cc3C(c3cc(OC)c(OC)c(OC)c3)C2C)OCO4)cc1 (stereo not given) | NCI-H522 lung | TGI | = | 2.45 |
| Cc1cccc2c3ccc4c(c3n(C)c12)C(=O)C=CC4=O | NCI-H522 lung | TGI | > | 100 |
| O=C(O[C@H](/C=C/c1ccccc1)P1(=O)N(Cc2ccccc2)[C@@H]2CCCC[C@H]2N1Cc1ccccc1)c1ccccc1 | NCI-H522 lung | TGI | > | 100 |
| O=C1OC[C@@H]2Cc3c([nH]c4ccccc34)[C@@H](c3ccc(O)cc3)N12 | NCI-H522 lung | TGI | = | 77.6 |

----------
test system: HCT-116 colon; experiment: NCI tumour cell line growth inhibition, 48 h
measured.endpoint: TGI

| structure.smiles.string | measured.endpoint | observed.result |
| --- | --- | --- |
| Clc1ccc(Cc2nc3cc4ccccc4cc3[nH]2)cc1 | TGI | 20.6 µM |
| O=C(OCc1ccccc1)OOC(=O)OCc1ccccc1 | TGI | > 100 µM |
| CSc1c(C(=O)Nc2ccc(C)cc2)c(N)[nH]c(=O)c1C#N | TGI | > 100 µM |
| COC(=O)c1c2c(c(C)[n+]([O-])c1C)C(=O)C=CC2=O | TGI | 7.5 µM |
| Cc1cc(O)cc(O)c1N=Nc1ccc([N+](=O)[O-])cc1 | TGI | 15.4 µM |
| Cc1nc2nnc(C)n2c2c1C(=O)Nc1ccccc1N2 | TGI | > 100 µM |
| CCOC(=O)c1cnc2[nH]ccn2c1=O | TGI | > 10 µM |
| C(=Nc1ccc(-c2nc3ccccc3s2)cc1)c1ccco1 | TGI | > 100 µM |
| Brc1ccc2c3c1[C@@H]1O[C@@H]1c1cccc(c1-3)[C@@H]1O[C@H]21 | TGI | 45.7 µM |
| NS(=O)(=O)c1ccc(-n2nc(-c3ccc(Br)cc3)ccc2=O)cc1 | TGI | > 10 µM |
| C#CC(C)(C)Oc1cc(O)c2c(=O)c3ccccc3n(C)c2c1 | TGI | > 100 µM |
